# Tested on: 648629-189-R-J1-PDC complex spheroids viability;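 note: drug exposure lasted seven days before viability readout; 100% = DMSO vehicle control wells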
# Experiment notes: Anticancer human tumor 648629-189-R-J1-PDC patient-derived bladder carcinoma cell line growth inhibition [CLK]
# Conditions: second compound 0.316 µM; first compound 0.00316 µM; stronger effect = lower value
Overview of reported viability, T/C across a group of compounds:
Lab book: enter the figure in %, no units written.

COc1c(OCCCN2CCOCC2)ccc2c3n(c(=NC(=O)c4cnc(N)nc4)nc12)CCN3 + CNC(=O)c1ccc(Nc2nc(OC3CCCC3)c3c(-c4ccc5nc(C)oc5c4)c[nH]c3n2)c(OC)c1    30.4

Exercise: Reported viability, T/C for 648629-189-R-J1-PDC complex spheroids viability, given CCN1CCN(Cc2ccc(Nc3ncc(F)c(-c4cc(F)c5nc(C)n(C(C)C)c5c4)n3)nc2)CC1 + CNC(=O)c1ccc(Nc2nc(OC3CCCC3)c3c(-c4ccc5nc(C)oc5c4)c[nH]c3n2)c(OC)c1 ?
Solution: 30.2

Exercise: Query the reported viability, T/C for 648629-189-R-J1-PDC complex spheroids viability; item: Cn1ncnc1[C@H]1c2n[nH]c(=O)c3cc(F)cc(c23)N[C@@H]1c1ccc(F)cc1 + CNC(=O)c1ccc(Nc2nc(OC3CCCC3)c3c(-c4ccc5nc(C)oc5c4)c[nH]c3n2)c(OC)c1
Solution: 30
